Known pIC50 of a selection of binders
Molecular target: T1, recombinant human Factor VIIa (human), P08709
T1 chain 1: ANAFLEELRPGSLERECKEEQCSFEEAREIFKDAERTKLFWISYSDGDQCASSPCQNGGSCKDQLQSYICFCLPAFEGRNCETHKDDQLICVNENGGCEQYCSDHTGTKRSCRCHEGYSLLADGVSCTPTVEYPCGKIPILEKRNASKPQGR
T1 chain 2: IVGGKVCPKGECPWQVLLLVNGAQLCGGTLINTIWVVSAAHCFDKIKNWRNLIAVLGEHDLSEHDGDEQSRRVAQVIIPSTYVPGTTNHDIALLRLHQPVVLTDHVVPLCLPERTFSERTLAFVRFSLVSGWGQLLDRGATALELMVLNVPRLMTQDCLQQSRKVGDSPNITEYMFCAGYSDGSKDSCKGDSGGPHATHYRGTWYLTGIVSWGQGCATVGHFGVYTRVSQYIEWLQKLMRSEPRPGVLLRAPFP
Experiment: competition ELISA
Details: modification not given
On this scale, pIC50 is minus log10 of a concentration expressed in M (mol/L).

Field: example entries. Status: answers known.
[
  {
    "Binder": "ALCDDPRVDQWYCQFVEG [TF98]",
    "pIC50": 5.59
  },
  {
    "Binder": "ALCDDPRVARWYCQFVEG [TF110]",
    "pIC50": 6.48
  }
]

Q: Return reported pIC50; argument: ATCDDPRVDRWYCQFVEG [TF318]
Ans: 4.12
